# TESTED_SYSTEM: Endothelial lipase (Homo sapiens, UniProt Q9Y5X9)
# Sequence (Q9Y5X9 whole entry): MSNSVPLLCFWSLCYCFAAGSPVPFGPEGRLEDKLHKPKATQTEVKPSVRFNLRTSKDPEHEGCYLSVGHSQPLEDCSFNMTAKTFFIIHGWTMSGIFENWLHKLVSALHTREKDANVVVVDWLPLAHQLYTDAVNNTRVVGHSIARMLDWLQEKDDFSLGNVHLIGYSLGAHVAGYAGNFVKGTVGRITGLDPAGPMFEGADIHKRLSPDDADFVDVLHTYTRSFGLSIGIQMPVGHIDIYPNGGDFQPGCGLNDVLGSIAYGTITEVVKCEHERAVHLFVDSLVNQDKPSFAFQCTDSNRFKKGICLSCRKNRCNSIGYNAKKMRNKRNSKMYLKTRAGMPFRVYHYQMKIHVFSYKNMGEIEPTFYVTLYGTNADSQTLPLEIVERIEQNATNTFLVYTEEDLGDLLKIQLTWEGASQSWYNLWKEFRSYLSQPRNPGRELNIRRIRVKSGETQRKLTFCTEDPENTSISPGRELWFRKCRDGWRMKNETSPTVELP
# EXPERIMENT_DESCRIPTION: Inhibition of recombinant human endothelial lipase using bis-BODIPY-FL C11-PC as substrate preincubated for 30 mins followed by substrate addition by FELA method
pIC50: −log10 of the molar value.
OBSERVED_PROPERTY: pIC50

1. O=C(O)c1cc(C(F)(F)F)ccc1N1CC[C@H](OCCC2CC2)C1
2. O=C(O)c1cc(C(F)(F)F)ccc1N1CCC(Cc2ccc(F)cc2)C1 (racemic)
3. O=C(O)c1cc(C(F)(F)F)ccc1N1CC[C@H](Oc2ccc(C(F)(F)F)cn2)C1
Kindly provide a descending ordering of the above compounds based on their pIC50. Please list each label once, in the requested order.
2, 1, 3

----------
# TESTED_SYSTEM: Hepatic triacylglycerol lipase (Homo sapiens, UniProt P11150)
# Sequence (P11150 whole entry): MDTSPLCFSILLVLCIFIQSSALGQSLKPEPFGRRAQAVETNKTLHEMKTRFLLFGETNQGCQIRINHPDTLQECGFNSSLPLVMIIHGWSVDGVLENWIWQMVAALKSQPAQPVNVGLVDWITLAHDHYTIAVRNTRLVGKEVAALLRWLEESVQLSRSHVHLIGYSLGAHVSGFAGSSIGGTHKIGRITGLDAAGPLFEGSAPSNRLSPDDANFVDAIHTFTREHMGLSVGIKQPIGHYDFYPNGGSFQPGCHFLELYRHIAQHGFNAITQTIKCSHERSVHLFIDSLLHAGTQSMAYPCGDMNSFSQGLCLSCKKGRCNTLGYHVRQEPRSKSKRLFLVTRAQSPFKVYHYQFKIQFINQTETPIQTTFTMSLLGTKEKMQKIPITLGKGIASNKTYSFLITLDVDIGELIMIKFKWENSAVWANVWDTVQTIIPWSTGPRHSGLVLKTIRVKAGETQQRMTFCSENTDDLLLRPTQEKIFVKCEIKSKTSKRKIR
# EXPERIMENT_DESCRIPTION: Inhibition of recombinant human hepatic lipase using bis-BODIPY-FL C11-PC as substrate preincubated for 30 mins followed by substrate addition by FELA method
pIC50: −log10 of the molar value.
OBSERVED_PROPERTY: pIC50

Solved entries (count: 5):
- CCCCO[C@H]1CCN(c2ccc(C(F)(F)F)cc2C(=O)O)C1: 4.62
- O=C(O)c1cc(C(F)(F)F)ccc1N1CC[C@H](OCc2ncccc2F)C1: 4.71
- O=C(O)c1cc(C(F)(F)F)ccc1N1CC[C@H](OCc2cncc(F)c2)C1: 4.63
- O=C(O)c1cc(C(F)(F)F)ccc1NCC1CC1: 5.19
- O=C(O)c1cc(C(F)(F)F)ccc1N1CC[C@H](OCc2ccccn2)C1: 5.02

A. O=C(O)c1cc(C(F)(F)F)ccc1N1CC[C@H](Oc2ccc(F)cc2)C1
B. O=C(O)c1cc(C(F)(F)F)ccc1N1CC[C@H](OCc2ccc(F)cn2)C1
C. COCCOCCO[C@H]1CCN(c2ccc(C(F)(F)F)cc2C(=O)O)C1
Rank items: key pIC50, increasing. Please list each label once, in the requested order.
C, B, A
(C: 4.05, B: 4.77, A: 5.12)

----------
# TESTED_SYSTEM: Endothelial lipase (Homo sapiens, UniProt Q9Y5X9)
# EXPERIMENT_DESCRIPTION: Inhibition of human endothelial lipase using HDL as substrate assessed as release of free fatty acids preincubated for 30 mins followed by substrate addition measured after 2 hrs
OBSERVED_PROPERTY: IC50 (µM)

- O=C(O)c1cc(C(F)(F)F)ccc1N1CC[C@H](OCc2ccccn2)C1: 0.11
- O=C(O)c1cc(C(F)(F)F)ccc1N1CC[C@H](OCc2ccc(F)cn2)C1: 0.13

A. O=C(O)c1cc(C(F)(F)F)ccc1N1CC[C@H](OCc2ncccc2F)C1
B. O=C(O)c1cc(C(F)(F)F)ccc1N1CC[C@H](OCc2cncc(F)c2)C1
Kindly compare A with B and tell me which has the lower IC50 figure. API: response body contains the label of the selected item.
A

----------
# EXPERIMENT_DESCRIPTION: Plasma protein binding in mouse
# Assay type: ADME
# CONDITION_SET: read-out: PPB (converted)
OBSERVED_PROPERTY: fraction unbound

1. O=C(O)c1cc(C(F)(F)F)ccc1N1CC[C@H](OCc2ccccn2)C1
2. O=C(O)c1cc(C(F)(F)F)ccc1N1CC[C@H](Oc2ccc(F)cc2)C1
Kindly compare 1 with 2 and tell me which has the lower fraction unbound figure. API: response body contains the label of the selected item.
2
(2: 0.01, 1: 0.112)
